Origin of values: patent US20070244048A1

System name: T1, human NMUR1 (human, UniProt Q9HB89 1-426)
T1 sequence (looked up): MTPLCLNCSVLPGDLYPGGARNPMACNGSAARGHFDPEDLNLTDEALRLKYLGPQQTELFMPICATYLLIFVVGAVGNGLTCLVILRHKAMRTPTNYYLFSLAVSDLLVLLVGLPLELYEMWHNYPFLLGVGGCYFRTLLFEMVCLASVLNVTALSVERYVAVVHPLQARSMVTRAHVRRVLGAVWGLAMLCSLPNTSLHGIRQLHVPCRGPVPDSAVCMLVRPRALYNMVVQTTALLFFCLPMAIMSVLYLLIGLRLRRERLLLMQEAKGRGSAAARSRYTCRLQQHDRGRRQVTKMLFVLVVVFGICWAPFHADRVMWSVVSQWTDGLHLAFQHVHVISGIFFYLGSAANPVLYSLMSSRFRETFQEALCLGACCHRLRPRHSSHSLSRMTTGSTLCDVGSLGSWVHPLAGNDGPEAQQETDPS
Experiment: cell-based or functional assay
Starred links: 1 amine or outer side, 2 acyl side, 3 side chain; linkers in the order of their positions; H or OH if unused. Non-standard residues stand in square brackets, D forms with d. No end group written: not given here. *: point of attachment. Ttds = 1-amino-4,7,10-trioxa-13-tridecanamine succinimic acid spacer, O=C(CCC(=O)[*:2])NCCCOCCOCCOCCCN[*:1]; (PEG)2 40 kDa = branched PEG of 40 kDa linked via the Cys side-chain thiol (code C2 = Cys(PEG)2 40 kDa); Succinimide(1-Et,3-yl) = CCN1C(=O)CC(*)C1=O
# Lookup of reported EC50 (FLIPR) keyed by entry

[
  {
    "Binder": "Ac-C(Succinimide(1-Et,3-yl))GYFLFRPRN-NH2 (SMILES CCN1C(=O)CC(SC[C@H](NC(C)=O)C(=O)NCC(=O)N[C@@H](Cc2ccc(O)cc2)C(=O)N[C@@H](Cc2ccccc2)C(=O)N[C@@H](CC(C)C)C(=O)N[C@@H](Cc2ccccc2)C(=O)N[C@@H](CCCNC(=N)N)C(=O)N2CCC[C@H]2C(=O)N[C@@H](CCCNC(=N)N)C(=O)N[C@@H](CC(N)=O)C(N)=O)C1=O) [NMU6]",
    "Result unit": "nM",
    "EC50 (FLIPR)": 3.5
  },
  {
    "Binder": "Ac-C((PEG)2 40 kDa)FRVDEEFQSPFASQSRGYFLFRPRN-NH2 [NMU12]",
    "Result unit": "nM",
    "EC50 (FLIPR)": 58.6
  },
  {
    "Binder": "Ac-C((PEG)2 40 kDa)ASQSRGYFLFRPRN-NH2 [NMU18]",
    "Result unit": "nM",
    "EC50 (FLIPR)": 68.1
  },
  {
    "Binder": "Ac-C(Succinimide(1-Et,3-yl))C(Succinimide(1-Et,3-yl))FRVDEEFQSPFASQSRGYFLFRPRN-NH2 [NMU22]",
    "Result unit": "nM",
    "EC50 (FLIPR)": 10.2
  },
  {
    "Binder": "GYFLFRPRN-NH2 [NMU3]",
    "Result unit": "nM",
    "EC50 (FLIPR)": 5.6
  },
  {
    "Binder": "Ac-C((PEG)2 40 kDa)[Ttds]FLFRPRN-NH2 [NMU16]",
    "Result unit": "nM",
    "EC50 (FLIPR)": 1000
  }
]
